Target: T1, recombinant mouse Ang2-FLD (mouse, UniProt O35608 275-496, limits assumed)
T1 construct: domain: FLD
T1 sequence (looked up): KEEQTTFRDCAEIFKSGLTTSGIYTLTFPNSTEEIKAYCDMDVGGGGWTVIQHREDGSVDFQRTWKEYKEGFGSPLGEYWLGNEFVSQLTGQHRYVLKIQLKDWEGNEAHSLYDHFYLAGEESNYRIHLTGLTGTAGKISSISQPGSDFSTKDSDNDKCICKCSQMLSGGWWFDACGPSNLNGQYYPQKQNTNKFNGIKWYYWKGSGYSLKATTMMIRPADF
Experiment: SPR (Biacore T100), binder on CM5 chip, Ang2-FLD as analyte
For each record, write down the corresponding kon.
Quick note: number first, unit second.

Q: Could you please provide reported kon for VHH 28D10 (VHH, also called 028D10; not shown: C-terminal c-myc tag and His6 tag) VHH: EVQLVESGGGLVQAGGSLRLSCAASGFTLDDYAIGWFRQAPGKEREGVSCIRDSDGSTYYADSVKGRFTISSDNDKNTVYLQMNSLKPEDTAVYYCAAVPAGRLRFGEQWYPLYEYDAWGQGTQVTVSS ? Thanks!
A: 1.9e+06 M⁻¹ s⁻¹

Q: State its kon for this binder: VHH 24B05 (VHH, also called 024B05; not shown: C-terminal c-myc tag and His6 tag) VHH: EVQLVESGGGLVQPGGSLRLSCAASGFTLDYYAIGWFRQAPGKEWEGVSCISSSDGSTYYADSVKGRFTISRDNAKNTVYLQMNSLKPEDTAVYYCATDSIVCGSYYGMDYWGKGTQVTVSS
A: 1.7e+06 M⁻¹ s⁻¹

Q: Identify measured kon corresponding to VHH 1D01 (VHH, also called 001D01; not shown: C-terminal c-myc tag and His6 tag) VHH: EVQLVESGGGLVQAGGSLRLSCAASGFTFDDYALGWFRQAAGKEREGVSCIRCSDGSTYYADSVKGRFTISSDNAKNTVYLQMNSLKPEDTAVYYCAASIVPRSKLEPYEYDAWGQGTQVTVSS
A: 3.3e+06 M⁻¹ s⁻¹

Q: Write down kon measured for item VHH 11B07 (VHH, also called 011B07; not shown: C-terminal c-myc tag and His6 tag) VHH: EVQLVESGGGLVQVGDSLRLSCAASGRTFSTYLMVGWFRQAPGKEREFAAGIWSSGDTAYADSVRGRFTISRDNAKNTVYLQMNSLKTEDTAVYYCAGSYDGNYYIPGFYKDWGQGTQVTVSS
A: 4.8e+06 M⁻¹ s⁻¹

Q: In one line, give reported kon of the entry VHH 13A02 (VHH, also called 013A02; not shown: C-terminal c-myc tag and His6 tag) VHH: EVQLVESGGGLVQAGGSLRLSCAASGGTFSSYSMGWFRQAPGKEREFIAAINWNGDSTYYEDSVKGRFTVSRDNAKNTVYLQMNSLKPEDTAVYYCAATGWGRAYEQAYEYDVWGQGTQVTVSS .
A: 1.9e+06 M⁻¹ s⁻¹

Q: Provide only the value of recorded kon for VHH 10H02 (VHH, also called 010H02; not shown: C-terminal c-myc tag and His6 tag) VHH: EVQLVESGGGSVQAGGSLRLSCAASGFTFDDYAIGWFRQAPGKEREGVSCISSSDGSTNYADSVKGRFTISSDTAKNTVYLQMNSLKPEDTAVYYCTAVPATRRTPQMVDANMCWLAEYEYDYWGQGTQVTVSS
A: 2.5e+06 M⁻¹ s⁻¹

Q: Please list kon recorded for the binder VHH 7G08 (VHH, also called 007G08; not shown: C-terminal c-myc tag and His6 tag) VHH: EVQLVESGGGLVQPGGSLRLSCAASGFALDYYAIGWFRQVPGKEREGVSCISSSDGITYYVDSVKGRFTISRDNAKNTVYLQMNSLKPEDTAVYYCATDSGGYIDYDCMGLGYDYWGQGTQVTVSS
A: 810000 M⁻¹ s⁻¹
